tested on: human apolipoprotein B mRNA; test: Inhibition of human apolipoprotein B mRNA levels in HepG2 cells, quantitative real-time PCR; assay type: cell-based; conditions: HepG2 cells; human apolipoprotein B mRNA; oligonucleotides targeting genomic sequence SEQ ID NO 334; averages from two experiments
In the oligonucleotide strings, read from the 5' end, every base follows the letter of its sugar. An asterisk marks phosphorothioate; unmarked linkages are phosphodiester. Other units and linkages are bracketed, terminal groups are in braces. A string of capitals states the bases alone. e = 2'-O-(2-methoxyethyl) (MOE); [5mC] = 5-methylcytosine; d = 2'-deoxy (DNA)
Label scheme for % INHIB: lower than 40% is no (0), 40% and above is yes (1).

Consider the following illustrative entries.
301068 (eA*eT*eT*eT*e[5mC]*d[5mC]*d[5mC]*dA*d[5mC]*dT*dG*dG*dG*dT*dA*e[5mC]*eT*e[5mC]*eT*e[5mC]; antisense) [compound 301068] :: yes (1)
301141 (eT*eA*e[5mC]*eA*eA*dG*dG*dT*dG*dT*dT*dT*d[5mC]*dT*dT*eA*eA*eG*eA*eA; antisense) [compound 301141] :: no (0)
301053 (eG*eT*e[5mC]*eG*e[5mC]*dA*dT*d[5mC]*dT*dT*d[5mC]*dT*dA*dA*d[5mC]*eG*eT*eG*eG*eG; antisense) [compound 301053] :: yes (1)
301213 (antisense eT*eA*eG*eA*eA*d[5mC]*d[5mC]*dA*dT*dG*dT*dT*dT*dG*dG*eT*e[5mC]*eT*eT*e[5mC]) [compound 301213] :: no (0)

In the following, a different substance is considered.
Is reported % INHIB greater than or equal to 40% here: 301104 (antisense e[5mC]*e[5mC]*eA*eG*eA*dG*dA*dT*dG*dA*dG*d[5mC]*dA*dA*d[5mC]*eT*eT*eA*eG*eG) [compound 301104] no (0)

Recorded values, source patent US7803930B2.
